Value source: paper PMC10818931

Biological target: CYP2E1 (Homo sapiens)
Sequence (P05181 whole entry): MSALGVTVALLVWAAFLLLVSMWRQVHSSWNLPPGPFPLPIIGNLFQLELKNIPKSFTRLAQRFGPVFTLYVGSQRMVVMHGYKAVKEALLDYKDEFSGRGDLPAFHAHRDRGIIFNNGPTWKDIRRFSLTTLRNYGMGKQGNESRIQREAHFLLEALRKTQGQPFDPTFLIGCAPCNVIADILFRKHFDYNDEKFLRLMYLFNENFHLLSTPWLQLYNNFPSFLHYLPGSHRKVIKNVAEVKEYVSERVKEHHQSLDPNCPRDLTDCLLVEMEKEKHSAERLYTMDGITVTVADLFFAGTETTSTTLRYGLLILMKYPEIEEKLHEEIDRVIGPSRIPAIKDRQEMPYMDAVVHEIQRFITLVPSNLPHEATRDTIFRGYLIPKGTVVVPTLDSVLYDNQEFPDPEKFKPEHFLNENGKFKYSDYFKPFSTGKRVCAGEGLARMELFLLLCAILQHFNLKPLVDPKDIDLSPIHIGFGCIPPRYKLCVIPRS
pIC50: −log10 of the molar value.
propertyMeasured: pIC50

I would be grateful if you could share the reported pIC50 for NC[C@H]1OB(O)c2c(OCCCO)cccc21 [EBO, Epetraborole] .
< 4.00

###

Tested on: CYP2B6
Test: CYP inhibition (direct and metabolism-dependent) in human hepatic microsomes
Format: in vitro ADME
Conditions: human, human liver microsomes, pH 7.4, probe bupropion, read-out: as an Inhibitor IC50
pIC50: −log10 of the molar value.
propertyMeasured: pIC50

I would be grateful if you could share the reported pIC50 for NC[C@H]1OB(O)c2c(OCCCO)cccc21 .
< 4.00

###

Target: BCRP (Homo sapiens, UniProt Q9UNQ0)
Construct: host or cells: MDCK (BCRP-MDCK)
Sequence (Q9UNQ0 whole entry): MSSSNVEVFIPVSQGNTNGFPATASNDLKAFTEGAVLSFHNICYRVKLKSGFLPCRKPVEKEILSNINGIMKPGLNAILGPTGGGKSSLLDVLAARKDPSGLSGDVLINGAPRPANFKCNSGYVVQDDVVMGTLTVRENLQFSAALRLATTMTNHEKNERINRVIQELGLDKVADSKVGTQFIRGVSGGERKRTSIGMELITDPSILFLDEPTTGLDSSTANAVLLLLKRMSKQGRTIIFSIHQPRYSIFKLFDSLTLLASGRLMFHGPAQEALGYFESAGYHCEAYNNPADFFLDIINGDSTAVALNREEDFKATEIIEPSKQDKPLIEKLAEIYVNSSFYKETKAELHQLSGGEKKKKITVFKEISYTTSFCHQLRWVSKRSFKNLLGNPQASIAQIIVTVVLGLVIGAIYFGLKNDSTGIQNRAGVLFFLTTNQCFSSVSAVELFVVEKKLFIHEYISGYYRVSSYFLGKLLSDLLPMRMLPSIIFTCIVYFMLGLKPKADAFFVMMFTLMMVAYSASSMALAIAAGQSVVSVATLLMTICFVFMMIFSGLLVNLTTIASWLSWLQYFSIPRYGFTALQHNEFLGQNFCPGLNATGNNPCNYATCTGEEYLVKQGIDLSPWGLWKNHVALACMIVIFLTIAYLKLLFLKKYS
Test: Inhibition of BCRP-mediated efflux transport in BCRP-MDCK cells
Assay type: in vitro ADME
Conditions: read-out: as an Inhibitor, IC50
Experimental: A preincubation with EBO or known inhibitor was performed on both sides to preload the cells. After 30 min, the preincubation solution was aspirated. […] Cell monolayer integrity was examined using lucifer yellow (excitation 450 nm and emission 538 nm). The concentrations of the probe substrate in the donor and receiver samples, as well as EBO in dosing solutions, were determined by LC-MS/MS.
propertyMeasured: IC50

I would be grateful if you could share the reported IC50 for NC[C@H]1OB(O)c2c(OCCC(=O)O)cccc21 .
> 500 µM

###

Hi there, I'd appreciate the recorded IC50 for every entry that follows.
Target sequence: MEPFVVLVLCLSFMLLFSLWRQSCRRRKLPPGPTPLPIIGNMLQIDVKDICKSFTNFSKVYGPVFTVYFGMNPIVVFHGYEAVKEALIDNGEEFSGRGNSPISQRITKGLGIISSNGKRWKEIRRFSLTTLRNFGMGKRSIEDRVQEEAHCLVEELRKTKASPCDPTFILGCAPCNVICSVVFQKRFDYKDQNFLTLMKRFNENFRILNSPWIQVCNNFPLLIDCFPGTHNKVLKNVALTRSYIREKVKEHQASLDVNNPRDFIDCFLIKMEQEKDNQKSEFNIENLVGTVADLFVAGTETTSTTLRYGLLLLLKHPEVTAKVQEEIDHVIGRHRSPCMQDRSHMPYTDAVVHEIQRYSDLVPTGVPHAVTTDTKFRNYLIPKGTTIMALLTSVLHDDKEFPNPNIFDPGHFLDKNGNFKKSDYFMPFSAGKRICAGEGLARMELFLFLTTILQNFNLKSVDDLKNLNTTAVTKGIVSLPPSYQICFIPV

I would be grateful if you could share the reported IC50 for NC[C@H]1OB(O)c2c(OCCC(=O)O)cccc21 .
> 1000 µM

Item: NC[C@H]1OB(O)c2c(OCCCO)cccc21
> 100 µM

###

Target: P-gp (Homo sapiens, UniProt P08183)
Sequence (P08183 whole entry): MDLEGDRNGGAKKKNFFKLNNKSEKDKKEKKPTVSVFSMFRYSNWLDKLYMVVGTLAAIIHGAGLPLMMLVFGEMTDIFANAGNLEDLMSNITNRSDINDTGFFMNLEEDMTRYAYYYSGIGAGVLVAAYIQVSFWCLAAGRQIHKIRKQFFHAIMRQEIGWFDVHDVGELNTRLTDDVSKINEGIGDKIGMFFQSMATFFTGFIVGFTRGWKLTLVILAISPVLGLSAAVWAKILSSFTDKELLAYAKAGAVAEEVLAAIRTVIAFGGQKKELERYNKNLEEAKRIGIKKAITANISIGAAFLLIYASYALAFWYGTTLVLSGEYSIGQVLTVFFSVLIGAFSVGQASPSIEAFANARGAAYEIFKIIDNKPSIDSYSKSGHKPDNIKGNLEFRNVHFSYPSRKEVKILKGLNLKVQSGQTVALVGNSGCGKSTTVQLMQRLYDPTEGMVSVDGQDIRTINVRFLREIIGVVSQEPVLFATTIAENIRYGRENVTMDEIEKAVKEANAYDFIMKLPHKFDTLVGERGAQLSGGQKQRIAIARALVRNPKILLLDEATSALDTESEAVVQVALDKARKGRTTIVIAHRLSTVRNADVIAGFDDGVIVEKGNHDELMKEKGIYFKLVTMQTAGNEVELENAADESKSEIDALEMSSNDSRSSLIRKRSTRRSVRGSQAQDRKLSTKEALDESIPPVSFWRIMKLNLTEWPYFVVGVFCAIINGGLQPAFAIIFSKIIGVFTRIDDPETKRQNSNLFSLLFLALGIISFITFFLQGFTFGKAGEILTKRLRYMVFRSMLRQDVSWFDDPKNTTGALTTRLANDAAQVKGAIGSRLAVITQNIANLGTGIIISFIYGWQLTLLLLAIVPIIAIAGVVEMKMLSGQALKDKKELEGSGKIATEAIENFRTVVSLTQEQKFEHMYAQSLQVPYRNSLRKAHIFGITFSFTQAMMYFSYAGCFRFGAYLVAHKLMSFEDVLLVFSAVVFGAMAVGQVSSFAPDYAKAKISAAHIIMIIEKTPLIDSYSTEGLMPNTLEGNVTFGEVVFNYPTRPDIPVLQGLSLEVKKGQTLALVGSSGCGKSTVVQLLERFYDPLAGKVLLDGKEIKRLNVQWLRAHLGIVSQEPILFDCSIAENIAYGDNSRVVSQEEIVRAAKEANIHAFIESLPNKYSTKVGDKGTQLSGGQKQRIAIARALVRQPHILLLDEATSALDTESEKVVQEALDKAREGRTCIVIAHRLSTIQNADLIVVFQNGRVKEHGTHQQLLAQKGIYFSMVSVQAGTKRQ
Assay: Caco-2 efflux ratio without/with P-gp inhibitor (P-gp substrate)
Format: in vitro ADME
Parameters: host or cells: Caco-2
Settings: human; Caco-2; 1, 10, 100 µM; vehicle (no P-gp inhibitor); 1–4 h; read-out: Efflux Ratio
propertyMeasured: efflux ratio

I would be grateful if you could share the reported efflux ratio for NC[C@H]1OB(O)c2c(OCCCO)cccc21 .
< 2

###

Molecular target: OCT2 (Homo sapiens, UniProt O15244)
Sequence (O15244 whole entry): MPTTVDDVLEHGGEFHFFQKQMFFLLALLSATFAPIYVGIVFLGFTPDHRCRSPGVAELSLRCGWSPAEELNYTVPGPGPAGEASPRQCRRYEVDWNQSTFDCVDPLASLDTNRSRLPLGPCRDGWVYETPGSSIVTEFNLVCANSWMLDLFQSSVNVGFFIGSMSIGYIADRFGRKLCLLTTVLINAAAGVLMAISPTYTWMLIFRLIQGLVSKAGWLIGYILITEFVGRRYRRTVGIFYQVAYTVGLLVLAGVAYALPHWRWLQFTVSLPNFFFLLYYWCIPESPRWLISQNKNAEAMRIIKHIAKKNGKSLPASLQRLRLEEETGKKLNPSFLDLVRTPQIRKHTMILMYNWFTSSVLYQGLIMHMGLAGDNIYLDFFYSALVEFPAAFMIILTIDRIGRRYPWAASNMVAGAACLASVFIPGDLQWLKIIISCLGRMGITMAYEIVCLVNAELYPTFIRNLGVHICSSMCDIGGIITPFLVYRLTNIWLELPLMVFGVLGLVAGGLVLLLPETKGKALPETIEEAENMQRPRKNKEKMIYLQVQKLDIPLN
Assay: Uptake transporter inhibition in transfected HEK 293 or MDCK cells
Conditions: read-out: as an Inhibitor, IC50
pIC50: −log10 of the molar value.
propertyMeasured: pIC50

// map NC[C@H]1OB(O)c2c(OCCC(=O)O)cccc21 to recorded pIC50 (system: OCT2 (Homo sapiens, UniProt O15244))
< 3.60

###

System: CYP1A2
Test: CYP inhibition (direct and metabolism-dependent) in human hepatic microsomes
Assay type: in vitro ADME
Settings: human, human hepatic microsomes, pH 7.4, highest concentration tested (100 µM); read-out: Decrease of CYP1A2 activity (inhibition)
propertyMeasured: inhibition at 100 µM

I would be grateful if you could share the reported inhibition at 100 µM for NC[C@H]1OB(O)c2c(OCCCO)cccc21 [EBO, Epetraborole] .
~30%

###

pIC50: −log10 of the molar value.
// each record: one item and its pIC50 for MATE2K (Homo sapiens)

I would be grateful if you could share the reported pIC50 for NC[C@H]1OB(O)c2c(OCCCO)cccc21 .
< 4.00

Item: NC[C@H]1OB(O)c2c(OCCC(=O)O)cccc21
< 3.60

###

Biological target: P-gp (Homo sapiens, UniProt P08183)
Assay: in vitro
Settings: human, pH 7.4
propertyMeasured: inhibition at 17000 µM

I would be grateful if you could share the reported inhibition at 17000 µM for NC[C@H]1OB(O)c2c(OCCCO)cccc21 .
> 50%

###

Test system: CYP3A4
Experiment: CYP mRNA induction in plated human hepatocytes (qPCR)
Conditions: human
propertyMeasured: EC50 at 2 days (µM)
Please state the figure in µM; there is no need to write the unit.

// map NC[C@H]1OB(O)c2c(OCCC(=O)O)cccc21 [M3] to recorded EC50 at 2 days (system: CYP3A4)
32.4

###

Target: BCRP (Homo sapiens, UniProt Q9UNQ0)
Construct: host or cells: MDCK (BCRP-MDCK)
Assay: Inhibition of BCRP-mediated efflux transport in BCRP-MDCK cells
Type: in vitro ADME
Settings: human, BCRP-MDCK cells, pH 7.4, at 500 μM
Method: A preincubation with EBO or known inhibitor was performed on both sides to preload the cells. After 30 min, the preincubation solution was aspirated. […] Cell monolayer integrity was examined using lucifer yellow (excitation 450 nm and emission 538 nm). The concentrations of the probe substrate in the donor and receiver samples, as well as EBO in dosing solutions, were determined by LC-MS/MS.
propertyMeasured: inhibition at 500 µM (%)
Please state the figure in %; there is no need to write the unit.

I would be grateful if you could share the reported inhibition at 500 µM for NC[C@H]1OB(O)c2c(OCCC(=O)O)cccc21 [M3] .
44

###

Hi there, I'd appreciate the recorded solubility for every entry that follows.
Experiment: Solubility in hepatocyte incubation medium
Format: physicochemical
Conditions: aqueous buffer, read-out: Soluble in hepatocyte incubation medium at
Please answer using the number first and the unit second.

I would be grateful if you could share the reported solubility for NC[C@H]1OB(O)c2c(OCCC(=O)O)cccc21 .
0.25 mM

Item: NC[C@H]1OB(O)c2c(OCCCO)cccc21
20 mM

###

Molecular target: OAT3 (Homo sapiens, UniProt Q8TCC7)
Sequence (Q8TCC7 1-542): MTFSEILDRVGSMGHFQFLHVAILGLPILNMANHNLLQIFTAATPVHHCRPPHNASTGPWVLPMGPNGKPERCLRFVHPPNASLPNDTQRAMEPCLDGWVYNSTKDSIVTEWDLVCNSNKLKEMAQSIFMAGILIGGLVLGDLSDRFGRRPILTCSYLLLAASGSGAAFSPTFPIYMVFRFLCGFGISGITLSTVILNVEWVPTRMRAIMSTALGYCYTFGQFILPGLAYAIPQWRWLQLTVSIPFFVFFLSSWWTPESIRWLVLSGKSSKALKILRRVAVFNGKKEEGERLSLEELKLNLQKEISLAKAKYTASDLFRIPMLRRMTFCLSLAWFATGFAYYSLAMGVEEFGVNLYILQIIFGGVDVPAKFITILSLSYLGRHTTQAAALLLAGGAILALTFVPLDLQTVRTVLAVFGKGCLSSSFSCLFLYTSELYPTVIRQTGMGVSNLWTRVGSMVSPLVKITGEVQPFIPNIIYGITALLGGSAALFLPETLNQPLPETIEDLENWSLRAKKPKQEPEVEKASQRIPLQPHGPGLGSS
Assay: Uptake transporter inhibition in transfected HEK 293 or MDCK cells
Conditions: read-out: as an Inhibitor, IC50
pIC50: −log10 of the molar value.
propertyMeasured: pIC50

I would be grateful if you could share the reported pIC50 for NC[C@H]1OB(O)c2c(OCCC(=O)O)cccc21 [M3] .
< 3.00

Item: NC[C@H]1OB(O)c2c(OCCCO)cccc21 [EBO, Epetraborole]
< 3.00

###

Target: UniProtKB Q4U2R8
Sequence (Q4U2R8 1-563): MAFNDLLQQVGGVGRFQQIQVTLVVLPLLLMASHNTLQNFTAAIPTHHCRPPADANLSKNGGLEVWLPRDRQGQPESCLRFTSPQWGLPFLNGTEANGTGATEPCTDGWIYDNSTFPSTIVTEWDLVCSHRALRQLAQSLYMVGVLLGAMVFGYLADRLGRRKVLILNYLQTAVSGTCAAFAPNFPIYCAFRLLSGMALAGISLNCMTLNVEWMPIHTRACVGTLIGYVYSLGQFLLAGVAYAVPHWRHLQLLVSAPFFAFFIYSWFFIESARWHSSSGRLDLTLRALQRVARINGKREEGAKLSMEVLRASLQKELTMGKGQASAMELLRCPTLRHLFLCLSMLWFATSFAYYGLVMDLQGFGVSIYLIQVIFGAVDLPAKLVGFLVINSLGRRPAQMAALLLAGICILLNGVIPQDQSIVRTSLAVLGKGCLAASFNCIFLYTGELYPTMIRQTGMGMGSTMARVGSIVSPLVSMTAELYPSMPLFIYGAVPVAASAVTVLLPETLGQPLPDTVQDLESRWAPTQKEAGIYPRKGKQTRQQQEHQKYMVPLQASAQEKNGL
Experiment: Uptake transporter inhibition in transfected HEK 293 or MDCK cells
Details: read-out: as an Inhibitor, IC50
propertyMeasured: IC50

I would be grateful if you could share the reported IC50 for NC[C@H]1OB(O)c2c(OCCCO)cccc21 .
> 1000 µM

Item: NC[C@H]1OB(O)c2c(OCCC(=O)O)cccc21
> 250 µM
